- assayed.system: human FPR1 (Homo sapiens (Human))
- protocol.details: FPR1 cyclic adenosine monophosphate (cAMP) assay
- Format: cell-based
- run.conditions: CHO cells overexpressing human FPR1; forskolin 10 µM; inhibition of cAMP production; read-out: hFPR1 cAMP EC50
- Method: N-formyl peptide receptors (FPRs) are a family of chemo attractant receptors that facilitate leukocyte response during inflammation. FPRs belong to the seven-transmembrane G protein-coupled receptor superfamily and are linked to inhibitory G-proteins (Gi). […] FPR2 and FPR1 Cyclic Adenosine Monophosphate (cAMP) Assays. […] The level of intracellular cAMP was determined using the HTRF HiRange cAMP assay reagent kit (Cisbio) according to manufacturer’s instruction. […]
reported.endpoint: EC50 (nM)

COc1cc(F)c([C@@H]2CN(c3nccc(OCC(C)(C)O)c3C(F)(F)F)C(=O)[C@H]2NC(=O)c2ccc(Cl)cc2)c(F)c1 295
COc1cc(F)c([C@H]2[C@H](NC(=O)c3ccc(OC(F)F)cc3)C(=O)N(c3cccc(P(C)(C)=O)n3)[C@H]2C)c(F)c1 3400
COc1cc(F)c([C@@H]2CN(c3nc(N(C)C(C)=O)ccc3F)C(=O)[C@H]2NC(=O)c2ccc(OC(F)(F)F)cc2)c(F)c1 5.9
COc1cc(F)c([C@@H]2CN(c3cncnc3O)C(=O)[C@H]2NC(=O)c2ccc(OC(F)F)cc2)c(F)c1 1900

P. COc1cc(F)c([C@@H]2CN(c3cccnc3OCCN3CC4(COC4)C3)C(=O)[C@H]2NC(=O)c2ccc(OC(F)F)cc2)c(F)c1
Q. COCCn1cccc(N2C(=O)[C@@H](NC(=O)c3ccc(OC(F)(F)F)cc3)[C@H](c3c(F)cc(OC)cc3F)[C@@H]2C)c1=O
Please state the entry with greater EC50 among P and Q . Pick one; state its label.
P
(P: 62 nM, Q: 22 nM)

###

- assayed.system: human FPR2 (Homo sapiens (Human))
- protocol.details: FPR2 cyclic adenosine monophosphate (cAMP) assay
- run.conditions: CHO cells overexpressing human FPR2; forskolin 5 µM; inhibition of cAMP production; read-out: hFPR2 cAMP2 EC50
pEC50: −log10 of the molar value.
reported.endpoint: pEC50

Reference set (6 entries):
compound	pEC50
CCn1ccc(N2C[C@@H](c3c(F)cc(OC)cc3F)[C@H](NC(=O)c3ccc(Cl)cc3)C2=O)n1 [Example 647]	8.82
COc1cc(F)c([C@@H]2CN(c3cc(C)cc(C4CCNCC4)n3)C(=O)[C@H]2NC(=O)c2ccc(OC(F)F)cc2)c(F)c1 [Example 716]	8.24
COc1cc(F)c([C@@H]2CN(c3cncn(C4CCNC4)c3=O)C(=O)[C@H]2NC(=O)c2ccc(Cl)cc2)c(F)c1 (some centres unmarked) [Example 710]	8.40
COc1cc(F)c([C@@H]2CN(c3c(C)ccn(C(F)(F)CO)c3=O)C(=O)[C@H]2NC(=O)c2ccc(OC(F)(F)F)cc2)c(F)c1 [Example 490]	9.00
COc1ccc([C@@H]2CN(c3c(C)ccn(CC4CC4)c3=O)C(=O)[C@H]2NC(=O)c2ccc(OC(F)F)cc2)cc1 [Example 610]	9.00
COc1cc(F)c([C@@H]2CN(c3nc(N4CCC(O)C4=O)ccc3F)C(=O)[C@H]2NC(=O)c2ccc(OC(F)(F)F)cc2)c(F)c1 (some centres unmarked) [Example 326]	7.96

P. COc1cc(F)c([C@@H]2CN(c3ccc(=O)n(C)c3)C(=O)[C@H]2NC(=O)c2ccc(OC(F)(F)F)cc2)c(F)c1 [Example 26]
Q. CCn1cccc(N2C[C@@H](c3c(F)cc(OC)cc3F)[C@H](NC(=O)c3ccc(C)cc3)C2=O)c1=O [Example 215]
R. COc1cc(C2CCN(C)CC2)nc(N2C[C@@H](c3c(F)cc(OC)cc3F)[C@H](NC(=O)c3ccc(OC(F)F)cc3)C2=O)c1 [Example 498]
Order the records so the highest pEC50 appears first and the lowest last. Put the labels in the requested order and write them down.
R, Q, P
(R: 8.74, Q: 8.25, P: 7.46)

a. COc1cc(F)c([C@@H]2CN(c3nc(N4C[C@H]5C[C@@H]4CO5)ccc3F)C(=O)[C@H]2NC(=O)c2ccc(OC(F)F)cc2)c(F)c1 [Example 256]
b. COc1cc(F)c([C@H]2[C@H](NC(=O)c3ccc(Cl)cc3)C(=O)N(c3cncn(CC(F)F)c3=O)[C@@H]2C)c(F)c1 [Example 503]
Of the pair a and b , name the member with the lesser recorded pEC50. Pick one; state its label.
a

A. COc1cc(F)c([C@@H]2CN(c3nc(C)ccc3C(F)(F)F)C(=O)[C@H]2NC(=O)c2ccc(OC(F)F)cc2)c(F)c1 [Example 247]
B. COc1cc(F)c([C@@H]2CN(c3cccn(CC(C)OC)c3=O)C(=O)[C@H]2NC(=O)c2ccc(OC(F)(F)F)cc2)c(F)c1 (some centres unmarked) [Example 103]
C. COc1cc(F)c([C@@H]2CN(c3nccc(N4C[C@@H]5C[C@H]4CN5C)c3C(F)(F)F)C(=O)[C@H]2NC(=O)c2ccc(Cl)cc2)c(F)c1 [Example 334]
Ordering: ascending pEC50. Put the labels in the requested order and write them down.
C, A, B
(C: 7.85, A: 8.16, B: 8.55)

###

- assayed.system: human FPR2 (Homo sapiens (Human), UniProt P25090)
- Sequence (P25090 whole entry): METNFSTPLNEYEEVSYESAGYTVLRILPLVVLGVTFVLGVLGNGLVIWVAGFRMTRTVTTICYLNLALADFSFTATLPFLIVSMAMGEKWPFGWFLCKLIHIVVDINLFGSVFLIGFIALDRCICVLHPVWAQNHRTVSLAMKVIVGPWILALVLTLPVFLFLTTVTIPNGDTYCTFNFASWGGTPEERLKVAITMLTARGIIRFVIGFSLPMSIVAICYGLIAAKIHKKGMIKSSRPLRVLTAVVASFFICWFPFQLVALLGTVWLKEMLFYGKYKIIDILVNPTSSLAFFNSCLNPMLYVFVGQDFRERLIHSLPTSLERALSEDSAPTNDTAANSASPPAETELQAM
- protocol.details: FPR2 cyclic adenosine monophosphate (cAMP) assay
- run.conditions: CHO cells overexpressing human FPR2; forskolin 5 µM; inhibition of cAMP production; read-out: hFPR2 cAMP2 EC50
pEC50: −log10 of the molar value.
reported.endpoint: pEC50

Reference set (2 entries):
compound	assayed.system	pEC50
CCn1cccc(N2C[C@@H](c3c(F)cc(OC)cc3F)[C@H](NC(=O)c3ccc(C(F)(F)F)cc3)C2=O)c1=O [Example 159]	human FPR2 (Homo sapiens (Human), UniProt P25090)	8.39
COc1ccc([C@@H]2CN(c3cccn(CC(C)OC)c3=O)C(=O)[C@H]2NC(=O)c2ccc(OC(F)(F)F)cc2)cc1 (stereo partly shown) [Example 405]	human FPR2 (Homo sapiens (Human), UniProt P25090)	8.33

1. CCn1cccc(N2C[C@@H](c3ccc(OC)cc3)[C@H](NC(=O)c3ccc(OC(F)(F)F)cc3)C2=O)c1=O [Example 128]
2. COc1cc(F)c([C@@H]2CN(c3cccn(CCN4CCS(=O)(=O)CC4)c3=O)C(=O)[C@H]2NC(=O)c2ccc(OC(F)F)cc2)c(F)c1 [Example 306]
Please state the entry with greater pEC50 among 1 and 2 . Pick one; state its label.
1

###

- assayed.system: human FPR2 (Homo sapiens (Human))
- protocol.details: FPR2 cyclic adenosine monophosphate (cAMP) assay
- run.conditions: CHO cells overexpressing human FPR2; forskolin 5 µM; inhibition of cAMP production; read-out: hFPR2 cAMP2 EC50
reported.endpoint: EC50 (nM)

compound	reported.endpoint	readout.number
COc1cc(F)c([C@@H]2CN(c3cc(C(F)(F)F)cn(C)c3=O)C(=O)[C@H]2NC(=O)c2ccc(Cl)cc2)c(F)c1 [Example 238]	EC50	6.6

P. COc1cc(F)c([C@@H]2CN(c3cncn(CCC(F)(F)F)c3=O)C(=O)[C@H]2NC(=O)c2ccc(OC(F)F)cc2)c(F)c1 [Example 487]
Q. COc1cc(F)c([C@@H]2CN(c3nc(N4CCC4=O)ccc3F)C(=O)[C@H]2NC(=O)c2ccc(OC(F)F)cc2)c(F)c1 [Example 46]
Please state the entry with greater EC50 among P and Q . Pick one; state its label.
P

###

- assayed.system: human FPR1 (Homo sapiens (Human), UniProt P21462)
- Sequence (P21462 whole entry): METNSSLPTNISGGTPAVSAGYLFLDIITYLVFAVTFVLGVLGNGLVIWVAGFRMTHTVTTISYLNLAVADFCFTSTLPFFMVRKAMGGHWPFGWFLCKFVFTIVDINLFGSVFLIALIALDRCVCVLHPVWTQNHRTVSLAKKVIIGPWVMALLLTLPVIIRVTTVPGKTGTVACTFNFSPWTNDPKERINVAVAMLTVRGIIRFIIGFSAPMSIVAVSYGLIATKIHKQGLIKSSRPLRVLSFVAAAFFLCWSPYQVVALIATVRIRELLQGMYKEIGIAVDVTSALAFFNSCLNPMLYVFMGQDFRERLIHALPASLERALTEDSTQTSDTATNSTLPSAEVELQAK
- protocol.details: FPR1 cyclic adenosine monophosphate (cAMP) assay
- run.conditions: CHO cells overexpressing human FPR1; forskolin 10 µM; inhibition of cAMP production; read-out: hFPR1 cAMP EC50
reported.endpoint: EC50 (nM)

Reference set (2 entries):
molecule	assayed.system	units.text	EC50
COCCn1ccc(C)c(N2C[C@@H](c3ccc(OC)cc3F)[C@H](NC(=O)c3ccc(Cl)cc3)C2=O)c1=O	human FPR1 (Homo sapiens (Human), UniProt P21462)	nM	6.3
COc1cc(F)c([C@@H]2CN(c3cccc(C4CCCNC4)n3)C(=O)[C@H]2NC(=O)c2ccc(OC(F)F)cc2)c(F)c1 (stereo partly drawn) [Example 719]	human FPR1 (Homo sapiens (Human), UniProt P21462)	nM	1900

P. COc1cc(F)c([C@@H]2CN(c3nc(C4CCN(CC(F)(F)F)CC4)ccc3F)C(=O)[C@H]2NC(=O)c2ccc(OC(F)F)cc2)c(F)c1
Q. COc1cc(F)c([C@@H]2CN(c3cnn4c3OCCC4)C(=O)[C@H]2NC(=O)c2ccc(OC(F)F)cc2)c(F)c1
R. COc1cc(F)c([C@@H]2CN(c3c(C)ccn(C4CCOC4)c3=O)C(=O)[C@H]2NC(=O)c2ccc(OC(F)F)cc2)c(F)c1 (stereo partly drawn)
S. COCCNc1ccnc(N2C[C@@H](c3c(F)cc(OC)cc3F)[C@H](NC(=O)c3ccc(Cl)cc3)C2=O)c1C(F)(F)F [Example 423]
Order the records so the highest EC50 appears first and the lowest last. Put the labels in the requested order and write them down.
S, Q, R, P

1. COCC(CO)n1ccc(C)c(N2C[C@@H](c3c(F)cc(OC)cc3F)[C@H](NC(=O)c3ccc(OC(F)F)cc3)C2=O)c1=O (stereo partly drawn) [Example 426]
2. COc1cc(F)c([C@@H]2CN(c3nc(N4C[C@H]5C[C@@H]4CO5)ccc3F)C(=O)[C@H]2NC(=O)c2ccc(OC(F)F)cc2)c(F)c1
Of the pair 1 and 2 , name the member with the lesser recorded EC50. Pick one; state its label.
1
